- PROCEDURE TEXT: Selectivity index, ratio of CC50 for mouse RAW264.7 cells to IC50 for Trypanosoma cruzi Tulahuen amastigotes infected in mouse L929 cells
- Format: toxicity, cell-based
- TEST CONTEXT: read-out: Ratio CC50/IC50
PROPERTY NAME: selectivity ratio

{"COMPOUND": "C/C(=N\\N=C1/SCC(=O)N1c1ccccc1)c1ccccn1", "VAL": 25.5}
{"COMPOUND": "CC(C)C1S/C(=N/N=C/c2ccccn2)N(c2ccccc2)C1=O (configuration not stated)", "VAL": 79}
{"COMPOUND": "C/C(=N\\N=C1\\SC(C(C)C)C(=O)N1C)c1ccncc1 (configuration not stated)", "VAL": 5.17}
{"COMPOUND": "O=C(Cn1ccnc1[N+](=O)[O-])NCc1ccccc1", "VAL": 19.6}
{"COMPOUND": "CC(C)C1S/C(=N/N=C/c2ccccn2)N(C)C1=O (configuration not stated)", "VAL": 355}
{"COMPOUND": "C/C(=N\\NC(N)=S)c1ccncc1", "VAL": 1.91}
{"COMPOUND": "C/C(=N\\N=C1/NC(=O)CS1)c1ccncc1", "VAL": 43.8}
{"COMPOUND": "CC(C)C1S/C(=N/N=C/c2ccccn2)NC1=O (configuration not stated)", "VAL": 305}
{"COMPOUND": "C/C(=N\\NC(=S)Nc1ccccc1)c1ccncc1", "VAL": 256}
{"COMPOUND": "C/C(=N\\N=C1/SCC(=O)N1C)c1ccccn1", "VAL": 3.61}
{"COMPOUND": "C/C(=N\\N=C1\\NC(=O)CS1)c1ccccn1", "VAL": 14.7}
{"COMPOUND": "CNC(=S)N/N=C(\\C)c1ccccn1", "VAL": 9.75}

###

Entries and their selectivity ratio
- PROCEDURE TEXT: Selectivity index, ratio of CC50 for mouse RAW264.7 cells to IC50 for Trypanosoma cruzi Tulahuen amastigotes infected in mouse L929 cells
- Format: toxicity, cell-based
- TEST CONTEXT: read-out: Ratio CC50/IC50

{"COMPOUND": "CNC(=S)N/N=C/c1ccccn1", "selectivity ratio": 9.72}
{"COMPOUND": "C/C(=N\\N=C1/NC(=O)C(C(C)C)S1)c1ccncc1 (stereo not drawn)", "selectivity ratio": 2.46}
{"COMPOUND": "C/C(=N\\N=C1/SCC(=O)N1C)c1ccncc1", "selectivity ratio": 56.2}

###

- PROCEDURE TEXT: Selectivity index, ratio of CC50 for mouse RAW264.7 cells to IC50 for Leishmania amazonensis WHOM/00 LTB 0016 amastigotes infected in mouse RAW264.7 cells
- Format: toxicity, cell-based
- TEST CONTEXT: read-out: Ratio CC50/IC50
Quick reference for selectivity ratio among some compounds
PROPERTY NAME: selectivity ratio

{"COMPOUND": "C/C(=N\\NC(N)=S)c1ccncc1", "PROPERTY NAME": "selectivity ratio", "VAL": 0.9}
{"COMPOUND": "CN1C(=O)C(C)(C)S/C1=N/N=C/c1ccccn1", "PROPERTY NAME": "selectivity ratio", "VAL": 1.01}
{"COMPOUND": "S=C(N/N=C/c1ccccn1)Nc1ccccc1", "PROPERTY NAME": "selectivity ratio", "VAL": 0.16}
{"COMPOUND": "CCCCCCCCCCCCCCCCOP(=O)([O-])OCC[N+](C)(C)C", "PROPERTY NAME": "selectivity ratio", "VAL": 17.5}
{"COMPOUND": "CC1(C)S/C(=N/N=C/c2ccccn2)N(c2ccccc2)C1=O", "PROPERTY NAME": "selectivity ratio", "VAL": 15.2}
{"COMPOUND": "CC(C)C1S/C(=N/N=C/c2ccccn2)NC1=O (stereo unspecified)", "PROPERTY NAME": "selectivity ratio", "VAL": 29.2}
{"COMPOUND": "O=C1CS/C(=N/N=C/c2ccccn2)N1c1ccccc1", "PROPERTY NAME": "selectivity ratio", "VAL": 0.18}
{"COMPOUND": "CNC(=S)N/N=C/c1ccccn1", "PROPERTY NAME": "selectivity ratio", "VAL": 0.1}
{"COMPOUND": "C/C(=N\\N=C1\\NC(=O)CS1)c1ccccn1", "PROPERTY NAME": "selectivity ratio", "VAL": 0.55}
{"COMPOUND": "CNC(=S)N/N=C(\\C)c1ccccn1", "PROPERTY NAME": "selectivity ratio", "VAL": 0.27}
{"COMPOUND": "CNC(=S)N/N=C(\\C)c1ccncc1", "PROPERTY NAME": "selectivity ratio", "VAL": 1.18}
{"COMPOUND": "C/C(=N\\NC(=S)Nc1ccccc1)c1ccncc1", "PROPERTY NAME": "selectivity ratio", "VAL": 2}
{"COMPOUND": "CC1(C)S/C(=N/N=C/c2ccccn2)NC1=O", "PROPERTY NAME": "selectivity ratio", "VAL": 1.11}
{"COMPOUND": "C/C(=N\\N=C1\\SC(C(C)C)C(=O)N1C)c1ccncc1 (stereo unspecified)", "PROPERTY NAME": "selectivity ratio", "VAL": 5.17}
{"COMPOUND": "C/C(=N\\N=C1/SCC(=O)N1C)c1ccncc1", "PROPERTY NAME": "selectivity ratio", "VAL": 1.05}
{"COMPOUND": "O=C1CS/C(=N/N=C/c2ccccn2)N1", "PROPERTY NAME": "selectivity ratio", "VAL": 7.74}
{"COMPOUND": "C/C(=N\\N=C1/SCC(=O)N1C)c1ccccn1", "PROPERTY NAME": "selectivity ratio", "VAL": 3.61}
{"COMPOUND": "C/C(=N\\N=C1/NC(=O)CS1)c1ccncc1", "PROPERTY NAME": "selectivity ratio", "VAL": 0.64}
{"COMPOUND": "C/C(=N\\NC(=S)Nc1ccccc1)c1ccccn1", "PROPERTY NAME": "selectivity ratio", "VAL": 0.06}
{"COMPOUND": "C/C(=N\\N=C1/SCC(=O)N1c1ccccc1)c1ccncc1", "PROPERTY NAME": "selectivity ratio", "VAL": 0.48}
{"COMPOUND": "C/C(=N\\N=C1/NC(=O)C(C(C)C)S1)c1ccncc1 (stereo unspecified)", "PROPERTY NAME": "selectivity ratio", "VAL": 2.46}
